# assay target: T1, human Allergin-1L (expressed on CHO cells) (human, UniProt Q7Z6M3 20-343)
# T1 construct: also called MILR1; human Allergin-1L-expressing CHO cell lines
# T1 sequence: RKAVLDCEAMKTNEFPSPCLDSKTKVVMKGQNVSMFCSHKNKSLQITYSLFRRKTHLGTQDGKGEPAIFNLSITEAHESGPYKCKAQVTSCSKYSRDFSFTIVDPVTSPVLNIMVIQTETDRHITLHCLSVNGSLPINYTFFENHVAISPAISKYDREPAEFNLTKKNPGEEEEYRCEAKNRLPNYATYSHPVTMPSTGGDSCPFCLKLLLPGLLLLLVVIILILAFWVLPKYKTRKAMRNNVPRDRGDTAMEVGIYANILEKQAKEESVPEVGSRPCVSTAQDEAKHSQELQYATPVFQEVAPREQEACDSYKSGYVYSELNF
# test protocol: selected on binding by CELISA and SPR (Example 5)

binder | binding result
humanized scFv Pro1588 (scFv, V domains shown, A single-chain Fv) VH: EVQLVESGGGLVQPGGSLRLSCAASGFSLTIYTITWVRQAPGKGLEWIGTINSYGNTYYSTWAKGRFTISRDNSKNTVYLQMNSLRAEDTAVYYCARGYVDSDWYLNIWGQGTLVTVSS VL: DIQMTQSPSSLSASVGDRVTITCQSSESVYDNNYLSWYQQKPGKAPKLLIYDASRLASGVPSRFSGSGSGTDFTLTISSLQPEDFATYYCLGGYDSSGWYAAFGTGTKVTVLG | binds
humanized scFv Pro1565 (scFv, V domains shown, A single-chain Fv) VH: EVQLVESGGGLVQPGGSLRLSCAASGFSLSSHAMAWVRQAPGKGLEWIGYIWSGGITEYPSWAKGRFTISRDNSKNTVYLQMNSLRAEDTAVYYCARDVHIYGDIYAFDLWGQGTLVTVSS VL: DIQMTQSPSSLSASVGDRVTITCQASQDIESYLNWYQQKPGKAPKLLIYYASTLASGVPSRFSGSGSGTDFTLTISSLQPEDFATYYCQQSYSNSDVDKNVFGTGTKVTVLG | binds
humanized scFv Pro1586 (scFv, V domains shown, A single-chain Fv) VH: EVQLVESGGGLVQPGGSLRLSCAASGIDLSYYAMNWVRQAPGKGLEWIGMIVGGGITFYANWAKGRFTISRDNSKNTVYLQMNSLRAEDTAVYYCAVGSDGGISDFNIWGQGTLVTVSS VL: DIQMTQSPSSLSASVGDRVTITCQASQSISSYLAWYQQKPGKAPKLLIYRASTLASGVPSRFSGSGSGTDFTLTISSLQPEDFATYYCQQAYSLSNVDNFFGTGTKVTVLG | binds
